System: LOC_OS03G04050-cb001
PROTOCOL_DESCRIPTION: thermal shift delta Tm vs DMSO control; higher = stronger stabilization (binding);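 further: purified Escherichia coli-expressed rice kinase domain construct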
REPORTED_CONDITIONS: 12.5 µM; protein concentration 2 µM
VALUE_TYPE: thermal shift delta Tm (°C)
One number for each entry, in °C.

Examples from the recorded data:
COMPOUND	thermal shift delta Tm / °C
CC[C@H](CO)Nc1nc(NCc2ccccc2)c2ncn(C(C)C)c2n1 [Roscovitine (Seliciclib,CYC202)]	0.22
C=CC(=O)N1CC[C@@H](Oc2nc(Nc3ccc(N4CCC(N5CCN(C)CC5)CC4)cc3)c(C(N)=O)nc2CC)C1	0.21
CN1CCN(c2nc(C3=C(c4c[nH]c5ccccc45)C(=O)NC3=O)c3ccccc3n2)CC1	0.22

Parameter requested: thermal shift delta Tm. Apply to each item below.
1. Cc1ccc([N+](=O)[O-])cc1S(=O)(=O)N(C)/N=C/c1cnc2ccc(Br)cn12
2. C=CC(=O)Nc1cccc(Nc2nc(Nc3ccc(N4CCN(C(C)=O)CC4)cc3OC)ncc2C(F)(F)F)c1
3. Nc1nccc(Oc2ccc3c(C(=O)Nc4cccc(C(F)(F)F)c4)cccc3c2)n1
4. CC1(COc2ccc3c(c2)ncn3-c2ccc3cccc(N4CCC(N)CC4)c3n2)COC1
5. CN(C)C/C=C/C(=O)Nc1cc2c(Nc3ccc(F)c(Cl)c3)ncnc2cc1O[C@H]1CCOC1 [Afatinib (BIBW2992)]

1. 0.72
2. 0.43
3. 0.37
4. 0.13
5. 0.26

----------
Tested on: LOC_OS01G02750-cb003
PROTOCOL_DESCRIPTION: thermal shift delta Tm vs DMSO control; higher = stronger stabilization (binding)
REPORTED_CONDITIONS: 12.5 µM; protein concentration 2 µM
VALUE_TYPE: thermal shift delta Tm (°C)
One number for each entry, in °C.

Examples from the recorded data:
COMPOUND	ASSAY_TARGET	UNITS_SYMBOL	thermal shift delta Tm
CSc1cccc(Nc2ncc3cc(-c4c(Cl)cccc4Cl)c(=O)n(C)c3n2)c1	LOC_OS01G02750-cb003	°C	0.56
COc1ccc(CCNCc2ccc(OCc3ccc(Cl)nc3)c(OC)c2)cc1OC	LOC_OS01G02750-cb003	°C	0.3
C[C@@H]1CN(CC(=O)Nc2ccc3c(c2)Cc2cccc(-c4cc(=O)cc(N5CCOCC5)o4)c2S3)C[C@H](C)O1	LOC_OS01G02750-cb003	°C	1.53
CCN1CCN(Cc2ccc(C(=O)Nc3ccc(C)c(Oc4ccc5c(c4)CC(=O)N5)c3)cc2C(F)(F)F)CC1	LOC_OS01G02750-cb003	°C	1.85
O=C1NC(=O)[C@@H](c2cn3c4c(cccc24)CCC3)[C@@H]1c1c[nH]c2ccccc12 [Tivantinib (ARQ 197)]	LOC_OS01G02750-cb003	°C	0.06

Parameter requested: thermal shift delta Tm. Apply to each item below.
1. CCN(CC)CCCC(C)Nc1nc(C)cc(Nc2ccc3nc(C)cc(N)c3c2)n1 (stereo not drawn)
2. CNC(=O)c1ccccc1Sc1ccc2c(/C=C/c3ccccn3)n[nH]c2c1
3. COc1cc2ccc(=O)oc2cc1O
4. CCn1c(=O)c(-c2ccc(-c3cncs3)cc2Cl)cc2cnc(Nc3ccc(N4CCN(C)CC4)cc3)nc21
5. CCc1nc(-c2cccc(C)c2)c(-c2ccnc(NC(=O)c3ccccc3)c2)s1

[1.02, 0.59, 0.35, -0.15, 0.26]

Parameter requested: thermal shift delta Tm. Apply to each item below.
1. O=c1cc(N2CCOCC2)oc2c(-c3cccc4c3sc3ccccc34)cccc12
2. C=CC(=O)Nc1cc(Nc2nccc(-c3cn(C)c4ccccc34)n2)c(OC)cc1N(C)CCN(C)C
3. c1cn2cc(-c3ccc4cn[nH]c4c3)nc(Nc3ccc(N4CCOCC4)cc3)c2n1

[-1.71, 0.94, 3.16]

Parameter requested: thermal shift delta Tm. Apply to each item below.
1. C=CC(=O)Nc1cc(Nc2nccc(-c3c[nH]c4ccccc34)n2)c(OC)cc1N(C)CCN(C)C
2. CCN(CC)CCNC(=O)c1c(C)[nH]c(/C=C2\C(=O)Nc3ccc(-c4csc(-c5ccccc5)n4)cc32)c1C
3. C=CC(=O)N1CCN(CCCn2c(=O)c(-c3c(Cl)c(OC)cc(OC)c3Cl)cc3cnc(NC)nc32)CC1
4. O=C(Nc1ccccc1C(=O)NC1CCCCNC1=O)c1cc2ccccc2s1 (stereo not drawn)
5. OCCn1cc(-c2cnc3nnn(Cc4ccc5ncccc5c4)c3n2)cn1

1: 0.98; 2: 0.02; 3: 0.26; 4: 1.09; 5: 0.79

----------
Test system: LOC_OS05G28520-cb001
PROTOCOL_DESCRIPTION: thermal shift delta Tm vs DMSO control; higher = stronger stabilization (binding)
REPORTED_CONDITIONS: 12.5 µM; protein concentration 2 µM
Binning rule for recorded thermal shift delta Tm: interval 1 = under 0.3 °C, interval 2 = from 0.3 °C up to 0.6 °C, interval 3 = 0.6 °C and over

# example entries with known answers
COMPOUND	CATEGORY
CCS(=O)(=O)c1cccc(-c2cc(C(=O)NC3CCN(C)CC3)c(C)c3[nH]c4ncc(C)cc4c23)c1	interval 3
CCCCNc1ncc(C(=O)NCc2ccc(-n3ccnc3)cc2)c(NC2CCC(O)CC2)n1 (configuration not stated)	interval 2
C=CC(=O)Nc1ccc2ncnc(Nc3cccc(Br)c3)c2c1	interval 1
CS(=O)(=O)c1cccc(CNc2nc(Nc3ccc4c(c3)CCC(=O)N4)ncc2C(F)(F)F)c1	interval 3
O=C(/C=C/c1ccc2ccccc2n1)c1ccncc1	interval 2

Band for O=C1Cc2c([nH]c3ccc(Br)cc23)-c2ccccc2N1 ?
interval 3

Band for Cc1ccc(NC(=O)c2cccc(N(C)C)c2)cc1NC(=O)c1ccc(O)cc1 ?
interval 3

Band for O=C(Cc1ccc(-c2ccc(OCCN3CCOCC3)cc2)cn1)NCc1ccccc1 ?
interval 2

Band for N[C@@H]1CCCN(c2c(/C=C3\SC(=O)NC3=O)cccc2-c2ccccc2)C1 ?
interval 3

Band for C=CC(=O)N1CCC(Oc2cc3c(Nc4ccc(Cl)c(Cl)c4F)ncnc3cc2OC)CC1 [Poziotinib (HM781-36B)] ?
interval 2

Band for COc1ccc(-c2ccc3c(N4CCOCC4)nc(N4C[C@@H](C)O[C@@H](C)C4)nc3n2)cc1CO ?
interval 1

----------
System: LOC_OS01G10900-cb004
PROTOCOL_DESCRIPTION: thermal shift delta Tm vs DMSO control; higher = stronger stabilization (binding)
REPORTED_CONDITIONS: 12.5 µM; protein concentration 2 µM
Counter-ions that a name gives are not always drawn.
Record form. Attribute: thermal shift delta Tm. Fill in for each entry.
Give bare numbers, in °C.

Examples from the recorded data:
MOLECULE	thermal shift delta Tm / °C
O=C(Nc1cnn2ccc(N3CCC[C@@H]3c3cc(F)ccc3F)nc12)N1CC[C@H](O)C1 [Larotrectinib (LOXO-101) sulfate]	0.8
CNC(=O)c1cc(Oc2ccc(NC(=O)Nc3ccc(Cl)c(C(F)(F)F)c3)cc2)ccn1 [Sorafenib Tosylate]	1.97

Parameter requested: thermal shift delta Tm. Apply to each item below.
1. N#Cc1cccc(-c2c[nH]c3ncnc(N4CCOCC4)c23)c1
2. C[C@H](Nc1ncnc2nc[nH]c12)c1cc2cccc(Cl)c2c(=O)n1-c1ccccc1 [Duvelisib (IPI-145, INK1197)]
3. Cc1c(CN2CCN(C(=O)[C@H](C)O)CC2)sc2c(N3CCOCC3)nc(-c3cnc(N)nc3)nc12 [Apitolisib (GDC-0980, RG7422)]

1: 0.72; 2: 0.09; 3: 0.13

----------
Tested on: LOC_OS03G50450-cb001
PROTOCOL_DESCRIPTION: thermal shift delta Tm vs DMSO control; higher = stronger stabilization (binding)
REPORTED_CONDITIONS: 12.5 µM; protein concentration 2 µM
VALUE_TYPE: thermal shift delta Tm

Examples from the recorded data:
COMPOUND	ASSAY_TARGET	RECORDED_MEASUREMENT
CCOc1cc2ncc(C#N)c(Nc3ccc(OCc4ccccn4)c(Cl)c3)c2cc1NC(=O)/C=C/CN(C)C	LOC_OS03G50450-cb001	0.39 °C
CC(=O)Nc1nc(C)c(-c2ccc(Cl)c(S(=O)(=O)NCCO)c2)s1	LOC_OS03G50450-cb001	0.73 °C
O=C(NCCCNc1nc(Nc2cccc(NC(=O)N3CCCC3)c2)ncc1I)c1cccs1	LOC_OS03G50450-cb001	6.67 °C
COc1cc(OC)cc(N(CCNC(C)C)c2ccc3ncc(-c4cnn(C)c4)nc3c2)c1	LOC_OS03G50450-cb001	0.28 °C

Parameter requested: thermal shift delta Tm. Apply to each item below.
1. O=C1c2ccc(Nc3ccc(F)cc3F)cc2CCc2ccc(OC[C@H](O)CO)cc21 [Skepinone-L]
2. COc1ccc(Cl)c(Nc2nc3ccccc3nc2NS(=O)(=O)c2cccc(NC(=O)C(C)(C)N)c2)c1
3. Cc1cc(CS(=O)(=O)c2ccccc2)cc(OCc2ccc(CN3CCC[C@@H]3CO)cc2)c1

0.06 °C
1.09 °C
0.6 °C

Give the reported thermal shift delta Tm for this compound. CC[C@H](CO)Nc1nc(NCc2ccccc2)c2ncn(C(C)C)c2n1 [Roscovitine (Seliciclib,CYC202)]
0.28 °C
